These measurements were taken from ChEMBL document CHEMBL1909046.

# assay_overview: DRUGMATRIX: Glutamate, NMDA, Phencyclidine radioligand binding (ligand: [3H] TCP)
# Type: cell membranes, Rattus norvegicus, Wistar, Cerebral cortex, Membrane
# test_settings: Not Active = under 50% inhibition at 10 µM
measured_property: Ki

> print(dat)
                                   compound    observed
1  CNNCc1ccc(C(=O)NC(C)C)cc1 [PROCARBAZINE]  Not Active
2  C[C@]12CCC(=O)C=C1CC[C@@H]1[C@@H]2CC[C@@]2(C)[C@H]1CC[C@]2(C)O [METHYLTESTOSTERONE]  Not Active
3  Sc1ncnc2nc[nH]c12 [MERCAPTOPURINE ANHYDROUS]  Not Active
4  c1ccc([C@H]2CN3CCSC3=N2)cc1 [LEVAMISOLE]  Not Active

Task item: Using the record for c1ccc(Nc2ccc(Nc3ccccc3)cc2)cc1 , report its Ki.
Reply: Not Active

Task item: Dear colleague, I am looking for the recorded Ki of the following compound: CN(Cc1ccc(C(C)(C)C)cc1)Cc1cccc2ccccc12 [BUTENAFINE]
Reply: Not Active
